The measured values listed here are drawn from paper PMC10786891.

Biological target: T1, EsCas13d, nuclease-dead (Eubacterium siraeum, UniProt B0MS50, R295A;H300A;R849A;H854A)
T1 sequence: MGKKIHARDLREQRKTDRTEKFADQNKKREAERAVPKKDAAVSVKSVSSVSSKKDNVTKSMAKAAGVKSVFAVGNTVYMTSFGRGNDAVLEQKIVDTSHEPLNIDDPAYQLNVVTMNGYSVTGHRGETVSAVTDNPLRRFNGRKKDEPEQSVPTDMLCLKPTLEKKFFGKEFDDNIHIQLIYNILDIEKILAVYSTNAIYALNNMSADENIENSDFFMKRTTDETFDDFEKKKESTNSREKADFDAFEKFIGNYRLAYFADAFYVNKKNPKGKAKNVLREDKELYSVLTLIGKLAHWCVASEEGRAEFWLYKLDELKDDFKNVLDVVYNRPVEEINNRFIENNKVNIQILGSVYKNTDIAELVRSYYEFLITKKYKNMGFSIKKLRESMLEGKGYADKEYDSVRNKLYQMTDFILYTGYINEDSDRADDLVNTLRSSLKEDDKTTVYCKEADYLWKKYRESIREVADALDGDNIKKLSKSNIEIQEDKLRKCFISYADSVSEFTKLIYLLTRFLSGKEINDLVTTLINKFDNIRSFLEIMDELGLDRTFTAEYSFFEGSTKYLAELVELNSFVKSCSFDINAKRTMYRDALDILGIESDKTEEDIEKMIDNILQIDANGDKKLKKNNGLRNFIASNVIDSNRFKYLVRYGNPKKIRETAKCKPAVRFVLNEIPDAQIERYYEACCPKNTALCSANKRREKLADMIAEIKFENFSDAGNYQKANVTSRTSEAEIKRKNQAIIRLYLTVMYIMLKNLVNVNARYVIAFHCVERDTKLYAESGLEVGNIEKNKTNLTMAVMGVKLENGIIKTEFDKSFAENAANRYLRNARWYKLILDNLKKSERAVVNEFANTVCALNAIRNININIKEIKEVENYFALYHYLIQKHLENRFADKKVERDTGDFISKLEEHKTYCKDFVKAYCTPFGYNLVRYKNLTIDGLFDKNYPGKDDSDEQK
Assay: crRNA (strand 1, pre-loaded); Mg2+; 40 mM Tris-HCl pH 7.5, 150 mM NaCl, 6 mM MgCl2, 1 mM DTT, 0.1% Tween-20, 0.2 mg/ml BSA; 25 C; 10 min per concentration, then washed
Details: tags: His6-TwinStrep-SUMO cleaved; N-terminal SNAP kept (SNAP-Surface 488); label: 3' end held by stalled T7 RNA polymerase
reported_endpoint: Kd (nM)
Kindly answer with a numeric value in nM, unit omitted.

INSERT INTO results (binder, reading_unit, value) VALUES
  ('target 2 MT 5''PFS GAG 3''PFS CUC (mixed) RNA 1: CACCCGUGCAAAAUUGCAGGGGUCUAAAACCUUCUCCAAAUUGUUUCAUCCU RNA 2: GGGAAUGGAUCCACAUCUACGAAUUCGAGAGGAUGAAACAAUUUGGAGAAGCUCAGAUCGGAAGAGCACACGU', 'nM', 11.3),
  ('target 1 insG 3'' of 22,insA 3'' of 8 (mixed) RNA 1: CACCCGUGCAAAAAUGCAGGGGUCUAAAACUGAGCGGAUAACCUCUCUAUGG RNA 2: GGGAAUGGAUCCACAUCUACGAAUUCGUACGCAUAGAGAGGUUAUACCGCUCACCGAGAUCGGAAGAGCACACGU', 'nM', 35.9);

The value of Kd measured for the binder target 1 insA 3' of 12,insG 3' of 1 (mixed) RNA 1: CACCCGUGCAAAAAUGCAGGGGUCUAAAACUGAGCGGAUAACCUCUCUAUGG RNA 2: GGGAAUGGAUCCACAUCUACGAAUUCGUACCAUAGAGAGGAUUAUCCGCUCAGCCGAGAUCGGAAGAGCACACGU turned out to be 28.9

The value of Kd measured for the binder target 2 MT 5'PFS UUA 3'PFS UCU (mixed) RNA 1: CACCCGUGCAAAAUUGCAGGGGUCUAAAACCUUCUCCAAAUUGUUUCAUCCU RNA 2: GGGAAUGGAUCCACAUCUACGAAUUCUUAAGGAUGAAACAAUUUGGAGAAGUCUAGAUCGGAAGAGCACACGU turned out to be 28
